# system: human Y4 receptor (human, UniProt P50391 1-375)
# Sequence (P50391 whole entry): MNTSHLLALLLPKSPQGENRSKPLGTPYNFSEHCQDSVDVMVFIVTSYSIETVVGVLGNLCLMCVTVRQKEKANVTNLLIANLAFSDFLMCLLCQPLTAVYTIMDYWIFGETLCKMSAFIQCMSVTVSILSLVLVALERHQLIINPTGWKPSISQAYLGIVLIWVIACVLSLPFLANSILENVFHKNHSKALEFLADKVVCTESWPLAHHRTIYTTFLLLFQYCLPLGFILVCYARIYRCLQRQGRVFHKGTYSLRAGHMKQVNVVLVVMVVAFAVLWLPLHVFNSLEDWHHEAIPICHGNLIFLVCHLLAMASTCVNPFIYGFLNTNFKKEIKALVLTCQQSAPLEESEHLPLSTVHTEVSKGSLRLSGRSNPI
# test: 125I-PP displacement
No end group written: not given here.
observation-type: IC50 (pM)
Give just the number in pM; leave the unit off.

1) APLEPKYPGDNATPEQMAQYAAALRRYINMLTRPRY [7230] = 210
2) GAPLEPVYPGDNATPEQMAHYAAELRRYINTLTRPRY [7159] = 165

Next binder, IC50 to be filled in.
**Query** Given the entry AAPLEPVYPGDNATPEQMAQYAADLRRYINKLTRPRY (ends and bridges not checked) [compound of SEQ ID NO:171 (code 7218)] , report its measured IC50.
**Result** 150
